Target: HsClpP (Homo sapiens, UniProt Q16740)
Sequence (Q16740 57-277): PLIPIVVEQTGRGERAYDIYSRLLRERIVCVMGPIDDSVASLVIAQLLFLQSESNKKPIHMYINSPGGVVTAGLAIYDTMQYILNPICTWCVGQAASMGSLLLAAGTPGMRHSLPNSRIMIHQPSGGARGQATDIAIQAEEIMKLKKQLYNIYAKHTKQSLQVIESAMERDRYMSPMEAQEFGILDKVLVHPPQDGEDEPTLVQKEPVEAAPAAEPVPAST
Experiment: HsClpP enzyme hydrolysis of short peptide substrate AC-WLA-AMC
Conditions: excitatory activity on HsClpP
measurement label: pEC50
Scale: negative log10 of molar concentration, which is what pEC50 denotes.

Under HsClpP (Homo sapiens, UniProt Q16740): pEC50 value of Cc1ccccc1CN1CCn2c1nc(=O)c1c2CCN(Cc2ccccc2)C1 [Compound 1] ? 6.52

###

Tested on: MV-4-11
Assay: CCK-8 in vitro anti-tumor proliferation assay
Assay type: cell-based
Settings: Homo sapiens, MV4-11, 72 h, read-out: IC50(uM) MV-4-11
measurement label: IC50 (µM)
Express your answer in µM, writing the number without its unit.

Requested field: IC50. Item: Cc1ccccc1CN1C(=O)C2=C(CCN(Cc3ccccc3)C2)N2CCN=C12 [ONC201, reference compound] 5

###

System: HCT116
Experiment: CCK-8 in vitro anti-tumor proliferation assay
Type: cell-based
Settings: Homo sapiens, HCT-116; Table 5; HCT116; 72 hours; read-out: IC50
Would you mind telling me the reported pIC50 of each entry?
Scale: negative log10 of molar concentration, which is what pIC50 denotes.

Requested field: pIC50. Item: `O=c1nc2n(c3c1CN(Cc1ccccc1)CC3)CCN2Cc1ccc2ccccc2c1` 6.52

# repeat for `Cc1ccc(CN2CCn3c2nc(=O)c2c3CCN(Cc3ccccc3)C2)cc1` 6.70

# repeat for `O=c1nc2n(c3c1CN(Cc1ccccc1)CC3)CCN2Cc1ccc(Br)c(F)c1` 7.10

# repeat for `COc1ccc(CN2CCn3c2nc(=O)c2c3CCN(Cc3ccccc3)C2)cc1` 5.92

# repeat for `O=c1nc2n(c3c1CN(Cc1ccccc1)CC3)CCN2Cc1ccccc1` 6.30

# repeat for `O=c1nc2n(c3c1CN(Cc1ccccc1)CC3)CCN2Cc1ccc(Cl)cc1` 7.10

# repeat for `O=c1nc2n(c3c1CN(Cc1ccccc1)CC3)CCN2Cc1ccc(F)c(F)c1` 7.00

# repeat for `Cc1cccc(CN2CCc3c(c(=O)nc4n3CCN4Cc3ccccc3C)C2)c1` 5.82

# repeat for `Cc1ccccc1CN1CCn2c1nc(=O)c1c2CCN(Cc2cccc(C#N)c2)C1` 6.30

# repeat for `O=c1nc2n(c3c1CN(Cc1ccccc1)CC3)CCN2Cc1ccc(Cl)c(Cl)c1` 7.52

# repeat for `O=c1nc2n(c3c1CN(Cc1ccccc1)CC3)CCN2Cc1ccc(Br)cc1` 6.30

# repeat for `O=c1nc2n(c3c1CN(Cc1ccccc1)CC3)CCN2CC1CCCCC1` 5.60

# repeat for `O=c1nc2n(c3c1CN(Cc1ccccc1)CC3)CCN2Cc1ccc(F)cc1` 7.10

# repeat for `Cc1ccccc1CN1CCn2c1nc(=O)c1c2CCN(Cc2ccccc2)C1` 6.40

# repeat for `COc1ccccc1CN1CCn2c1nc(=O)c1c2CCN(Cc2ccccc2)C1` 5.89

# repeat for `O=c1nc2n(c3c1CN(Cc1ccccc1)CC3)CCN2Cc1ccc(C(F)(F)F)cc1` 6.52

# repeat for `Cc1cccc(CN2CCn3c2nc(=O)c2c3CCN(Cc3ccccc3)C2)c1` 6.52

# repeat for `O=c1nc2n(c3c1CN(Cc1ccccc1)CC3)CCN2Cc1ccc(F)cc1F` 7.00

###

System: A172
Experiment: CCK-8 in vitro anti-tumor proliferation assay
Format: cell-based
Conditions: Homo sapiens, A 172; Table 3; 72 hours
Would you mind telling me the reported IC50 of each entry?
Express your answer in µM, writing the number without its unit.

Requested field: IC50. Item: Cc1ccccc1CN1CCn2c1nc(=O)c1c2CCN(Cc2ccccc2)C1 [Compound 1] 0.5

# repeat for O=c1nc2n(c3c1CN(Cc1ccccc1)CC3)CCN2Cc1ccc(F)cc1F [Compound 19] 0.15

# repeat for O=c1nc2n(c3c1CN(Cc1ccccc1)CC3)CCN2Cc1ccc(F)c(F)c1 [Compound 20] 0.1

# repeat for O=c1nc2n(c3c1CN(Cc1ccccc1)CC3)CCN2Cc1ccc(C(F)(F)F)cc1 [Compound 18] 0.2
